Target: human α1A-adrenoceptor (ADRA1A) expressed in HEK293 cells (Homo sapiens)
Construct: eGFP; host or cells: HEK293 (transient, Lipofectamine 2000)
Sequence (P35348 1-466): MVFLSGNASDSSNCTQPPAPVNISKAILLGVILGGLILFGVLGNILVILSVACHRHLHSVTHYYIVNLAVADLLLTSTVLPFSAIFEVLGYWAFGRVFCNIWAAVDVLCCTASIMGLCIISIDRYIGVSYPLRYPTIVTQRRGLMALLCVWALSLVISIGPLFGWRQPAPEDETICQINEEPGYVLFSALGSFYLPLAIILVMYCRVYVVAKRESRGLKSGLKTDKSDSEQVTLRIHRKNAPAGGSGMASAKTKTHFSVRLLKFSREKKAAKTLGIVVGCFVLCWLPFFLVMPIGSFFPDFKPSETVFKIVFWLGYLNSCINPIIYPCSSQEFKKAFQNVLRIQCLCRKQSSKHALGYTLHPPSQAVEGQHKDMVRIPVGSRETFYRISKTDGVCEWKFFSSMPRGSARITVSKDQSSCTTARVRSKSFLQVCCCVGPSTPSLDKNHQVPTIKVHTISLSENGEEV
Assay: Dual-luciferase CRE reporter HTS assay, inhibition of PE-induced CRE activation (RIP)
Type: cell-based
Details: relative inhibitory potency = (RLU PE alone − RLU PE+antagonist)/RLU PE alone
MEASURED ATTRIBUTE: RIP Values (Mean ± S.E.M, n = 4) α1A

Solved cases (2 shown):
{"COMPOUND": "COc1cc2nc(N3CCN(C(=O)C4CCCO4)CC3)nc(N)c2cc1OC (stereo not shown)", "OBSERVED MEASUREMENT": 0.89}
{"COMPOUND": "COc1ccccc1N1CCN(CC(O)COc2cccc3ccccc23)CC1 (stereo not shown) [Naftopidil, naftopidil, reference compound]", "OBSERVED MEASUREMENT": 0.79}

A: COc1ccccc1N1CCN(CCCNc2c(C)c(=O)n(C)c(=O)n2C)CC1
B: COc1cc2nc(N3CCN(C(=O)OCc4ccccc4)[C@H](C(=O)NC(C)(C)C)C3)nc(N)c2cc1OC
Task: # return whichever of A and B has the smaller RIP Values (Mean ± S.E.M, n = 4) α1A Write down the label attached to your selection.
Output: B

----------
Test system: DU145 human prostate cancer cell line
Test: CCK-8 assay, cytotoxic / anti-proliferative activity
Type: cell-based
Settings: DU-145, CCK-8, 24 h exposure, mean ± SD, three experiments
Measured IC50 values are reported for all entries that follow.
Quick reminder: number only, in µM, skip the unit.

Solved cases (2 shown):
{"COMPOUND": "Cc1ccc(S(=O)(=O)OCCc2ccc(CN3C(=O)c4ccccc4C3=O)cc2)cc1", "TARGET DESC": "DU145 human prostate cancer cell line", "MEASURED ATTRIBUTE": "IC50", "OBSERVED MEASUREMENT": 11.1}
{"COMPOUND": "Cc1ccc(S(=O)(=O)OCCc2ccc(COc3ccc4c(c3)OCO4)cc2)cc1", "TARGET DESC": "DU145 human prostate cancer cell line", "MEASURED ATTRIBUTE": "IC50", "OBSERVED MEASUREMENT": 39.1}

Task: Entry under review: COc1ccccc1N1CCN(CC(O)COc2cccc3ccccc23)CC1 (stereo not drawn) [Naftopidil, naftopidil, reference compound] . Reported IC50?
Output: 34.6

----------
Molecular target: human α1D-adrenoceptor (ADRA1D) expressed in HEK293 cells (Homo sapiens)
Construct: eGFP
Assay: Dual-luciferase CRE reporter HTS assay, agonist mode
Details: HEK293, 8 h, read-out: EC50 α1D (agonistic activity)
MEASURED ATTRIBUTE: EC50 (µM)

a: Cc1ccc(S(=O)(=O)OCCc2ccc(CN3C(=O)c4ccccc4C3=O)cc2)cc1
b: CNC[C@H](O)c1cccc(O)c1 [Phenylephrine, phenylephrine, reference compound]
Task: # return whichever of a and b has the smaller EC50 Write down the label attached to your selection.
Output: b
(b: 2.68 µM, a: 47.2 µM)

----------
System: PC-3 human prostate cancer cell line
Test: CCK-8 assay, cytotoxic / anti-proliferative activity
Type: cell-based
Conditions: CCK-8, 24 h exposure, mean ± SD, three experiments
MEASURED ATTRIBUTE: IC50 (µM)
Quick reminder: number only, in µM, skip the unit.

{"COMPOUND": "Cc1ccc(S(=O)(=O)OCCc2ccc(CN3C(=O)c4ccccc4C3=O)cc2)cc1", "IC50 [µM]": 91.3}
{"COMPOUND": "Cc1ccc(S(=O)(=O)OCCc2ccc(COc3ccc4c(c3)OCO4)cc2)cc1", "IC50 [µM]": 55.3}

Next, consider the following compound.
Task: Entry under review: COc1ccccc1N1CCN(CC(O)COc2cccc3ccccc23)CC1 (stereo not drawn) [Naftopidil, naftopidil, reference compound] . Reported IC50?
Output: 42.1

----------
Biological target: human α1D-adrenoceptor (ADRA1D) expressed in HEK293 cells (Homo sapiens, UniProt P25100)
Construct: eGFP; host or cells: HEK293 (transient, Lipofectamine 2000)
Sequence (P25100 1-572): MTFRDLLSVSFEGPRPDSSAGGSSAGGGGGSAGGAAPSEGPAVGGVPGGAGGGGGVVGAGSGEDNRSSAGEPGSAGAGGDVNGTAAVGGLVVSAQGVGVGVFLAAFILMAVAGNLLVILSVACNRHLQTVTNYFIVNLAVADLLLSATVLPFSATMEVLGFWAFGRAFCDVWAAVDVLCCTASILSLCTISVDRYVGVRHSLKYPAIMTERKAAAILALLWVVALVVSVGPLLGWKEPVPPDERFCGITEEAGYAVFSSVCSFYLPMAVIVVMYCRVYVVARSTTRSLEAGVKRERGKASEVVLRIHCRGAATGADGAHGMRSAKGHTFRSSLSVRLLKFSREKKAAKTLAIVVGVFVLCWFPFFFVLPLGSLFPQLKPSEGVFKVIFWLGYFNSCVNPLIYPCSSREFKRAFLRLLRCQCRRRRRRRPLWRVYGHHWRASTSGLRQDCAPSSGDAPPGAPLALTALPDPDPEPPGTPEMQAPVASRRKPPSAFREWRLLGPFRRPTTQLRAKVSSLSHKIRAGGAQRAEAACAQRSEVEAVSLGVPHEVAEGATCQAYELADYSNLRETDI
Test: Dual-luciferase CRE reporter HTS assay, inhibition of PE-induced CRE activation (RIP)
Format: cell-based
Details: relative inhibitory potency = (RLU PE alone − RLU PE+antagonist)/RLU PE alone
MEASURED ATTRIBUTE: RIP Values (Mean ± S.E.M, n = 4) α1D

{"COMPOUND": "COc1cc2nc(N3CCN(C(=O)C4CCCO4)CC3)nc(N)c2cc1OC (stereo not shown) [Terazosin, terazosin]", "RIP Values (Mean ± S.E.M, n = 4) α1D": 0.49}

A: COc1cc2nc(N3CCN(C(=O)OCc4ccccc4)[C@H](C(=O)NC(C)(C)C)C3)nc(N)c2cc1OC [Compound L-765314]
B: COc1ccccc1N1CCN(CCCNc2c(C)c(=O)n(C)c(=O)n2C)CC1 [5-Methylurapidil, 5-methylurapidil]
C: COc1ccccc1N1CCN(CC(O)COc2cccc3ccccc23)CC1 (stereo not shown) [Naftopidil, naftopidil, reference compound]
Task: Rank entries according to their RIP Values (Mean ± S.E.M, n = 4) α1D, from the largest number down. # list labels per requested ordering
Output: C, B, A

----------
System: RWPE-1 human prostate epithelial cell line
Test: CCK-8 assay, cytotoxic / anti-proliferative activity
Assay type: cell-based
Details: Homo sapiens, RWPE-1; CCK-8, 24 h exposure; mean ± SD, three experiments
Method: Cell proliferation was measured with the Cell Counting Kit-8 (CCK-8) assay kit (Dojindo Corp., Kumamoto, Japan). […] Cell growth inhibition was determined by measuring the absorbance (Abs) at λ = 450 nm using amicroplate reader. […] Cell growth inhibition was calculated according to the following equation: Growth inhibition = (1 − OD of treated cells/OD of control cells) × 100% (2) […]
MEASURED ATTRIBUTE: IC50 (µM)
Quick reminder: number only, in µM, skip the unit.

Solved cases (2 shown):
{"COMPOUND": "Cc1ccc(S(=O)(=O)OCCc2ccc(CN3C(=O)c4ccccc4C3=O)cc2)cc1", "UNIT TEXT": "µM", "IC50": 30.7}
{"COMPOUND": "Cc1ccc(S(=O)(=O)OCCc2ccc(COc3ccc4c(c3)OCO4)cc2)cc1", "UNIT TEXT": "µM", "IC50": 31.7}

Next, consider the following compound.
Task: Entry under review: COc1ccccc1N1CCN(CC(O)COc2cccc3ccccc23)CC1 (stereo not drawn) [Naftopidil, naftopidil, reference compound] . Reported IC50?
Output: 52

----------
Target: human α1A-adrenoceptor (ADRA1A) expressed in HEK293 cells (Homo sapiens, UniProt P35348)
Construct: eGFP
Test: Dual-luciferase CRE reporter HTS assay, agonist mode
Conditions: HEK293, 8 h, read-out: EC50 α1A (agonistic activity)
Protocol: HEK293 cells were plated at a density of 10^5 […] in 96-well plates in 100 μL of DMEM basic medium containing 10% fetal bovine serum, 100 U/mL penicillin, and 0.1 mg/mL streptomycin. […] Firefly and Renilla luciferase activities, which are indicated as RLUs, were determined using Dual-Glo luciferase assay kits (Promega) according to the manufacturer’s instructions. […]
MEASURED ATTRIBUTE: EC50 (µM)
Quick reminder: number only, in µM, skip the unit.

Task: Entry under review: Cc1ccc(S(=O)(=O)OCCc2ccc(COc3ccc4c(c3)OCO4)cc2)cc1 [CHK3] . Reported EC50?
Output: 42.5
